# pIC50 listing for each entry below
target: DOR (Mus musculus); construct: Male ICR mice under CO2 anesthesia were sacrificed by cervical dislocation and the vasa differentia removed; from tissue; host or cells: mouse vas deferens (ICR mice); experiment: Mouse isolated vas deferens (MVD) functional assay; type: cell-based
Sequence (P32300 whole entry): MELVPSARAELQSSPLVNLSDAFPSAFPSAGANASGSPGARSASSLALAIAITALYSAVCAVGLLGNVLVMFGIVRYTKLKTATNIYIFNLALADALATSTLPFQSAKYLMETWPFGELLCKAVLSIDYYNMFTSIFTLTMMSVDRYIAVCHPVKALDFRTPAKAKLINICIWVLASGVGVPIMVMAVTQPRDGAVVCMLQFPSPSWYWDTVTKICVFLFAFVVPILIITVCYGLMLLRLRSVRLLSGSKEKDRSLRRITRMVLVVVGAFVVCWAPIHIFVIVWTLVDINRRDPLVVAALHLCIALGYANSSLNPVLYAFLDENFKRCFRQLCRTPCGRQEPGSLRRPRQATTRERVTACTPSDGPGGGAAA
Keep it numeric: pIC50 is minus log10 of the concentration in mol/L.

Study these solved cases before continuing.
>>> data_value("CC(C)C[C@H](NC(=O)[C@@H]1CCCN1C(=O)c1ccc(NC(=O)[C@H](Cc2ccccc2)N(C)C(=O)CNC(=O)[C@@H](C)NC(=O)[C@@H](N)Cc2ccc(O)cc2)cc1)C(=O)N[C@@H](Cc1c[nH]c2ccccc12)C(=O)NCc1cc(C(F)(F)F)cc(C(F)(F)F)c1")
7.64
>>> data_value("CC(C)C[C@H](NC(=O)[C@@H]1CCCN1C(=O)Cc1ccc(NC(=O)[C@H](Cc2ccccc2)N(C)C(=O)CNC(=O)[C@@H](C)NC(=O)[C@@H](N)Cc2ccc(O)cc2)cc1)C(=O)N[C@@H](Cc1c[nH]c2ccccc12)C(=O)NCc1cc(C(F)(F)F)cc(C(F)(F)F)c1")
7.46
>>> data_value("CC(C)C[C@H](NC(=O)[C@@H]1CCCN1C(=O)CCCNC(=O)[C@H](Cc1ccccc1)N(C)C(=O)CNC(=O)[C@@H](C)NC(=O)[C@@H](N)Cc1ccc(O)cc1)C(=O)N[C@@H](Cc1c[nH]c2ccccc12)C(=O)NCc1cc(C(F)(F)F)cc(C(F)(F)F)c1")
7.30
>>> data_value("CC(C)C[C@H](NC(=O)[C@@H]1CCCN1C(=O)CCCCCNC(=O)[C@H](Cc1ccccc1)N(C)C(=O)CNC(=O)[C@@H](C)NC(=O)[C@@H](N)Cc1ccc(O)cc1)C(=O)N[C@@H](Cc1c[nH]c2ccccc12)C(=O)NCc1cc(C(F)(F)F)cc(C(F)(F)F)c1")
7.43

Entry "CC(C)C[C@H](NC(=O)[C@@H]1CCCN1C(=O)c1ccc(CNC(=O)[C@H](Cc2ccccc2)N(C)C(=O)CNC(=O)[C@@H](C)NC(=O)[C@@H](N)Cc2ccc(O)cc2)cc1)C(=O)N[C@@H](Cc1c[nH]c2ccccc12)C(=O)NCc1cc(C(F)(F)F)cc(C(F)(F)F)c1" , pIC50 reported as 7.33

====

target: MOR; assay: Radioligand binding assay at μ opioid receptor; conditions: log IC50 ± error
reported_endpoint: Log[IC50±] (μ)

>>> data_value("Cc1cc(O)cc(C)c1C[C@H](N)C(=O)N[C@H](C)C(=O)NCC(=O)N[C@@H](Cc1ccc(I)cc1)C(=O)N1CCC[C@H]1C(=O)N[C@@H](CC(C)C)C(=O)N[C@@H](Cc1c[nH]c2ccccc12)C(=O)NCc1cc(C(F)(F)F)cc(C(F)(F)F)c1 [AKG193]")
"−7.88 ± 0.07"

Entry Cc1cc(O)cc(C)c1C[C@H](N)C(=O)N[C@H](C)C(=O)NCC(=O)N[C@@H](Cc1ccc(F)cc1)C(=O)N1CCC[C@H]1C(=O)N[C@@H](CC(C)C)C(=O)N[C@@H](Cc1c[nH]c2ccccc12)C(=O)NCc1cc(C(F)(F)F)cc(C(F)(F)F)c1 [AKG127] , Log[IC50±] (μ) reported as −8.72 ± 0.08

====

molecular target: hNK1 (Homo sapiens, UniProt P25103); construct: expressed in transfected cells; host or cells: CHO; test: hNK1/CHO cell membrane radioligand binding assay ([3H]SP); details: Ki^hNK1 (nM), hNK1/CHO membranes, [3H]SP
Sequence (P25103 whole entry): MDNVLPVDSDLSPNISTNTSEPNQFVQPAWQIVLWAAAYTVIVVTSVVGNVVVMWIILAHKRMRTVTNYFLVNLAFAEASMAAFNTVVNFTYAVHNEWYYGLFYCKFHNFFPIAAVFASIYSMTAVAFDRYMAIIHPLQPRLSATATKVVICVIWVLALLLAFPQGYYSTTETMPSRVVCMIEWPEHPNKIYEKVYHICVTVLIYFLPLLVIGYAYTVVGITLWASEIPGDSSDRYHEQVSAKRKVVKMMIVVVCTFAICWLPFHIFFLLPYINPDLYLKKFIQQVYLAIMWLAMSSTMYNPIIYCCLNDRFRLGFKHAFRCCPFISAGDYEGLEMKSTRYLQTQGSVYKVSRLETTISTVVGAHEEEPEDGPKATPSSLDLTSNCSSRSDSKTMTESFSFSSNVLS
Non-standard residues stand in square brackets, D forms with d. Residues, ends and D or L forms follow the SMILES beside them. *: point of attachment. NH(3,5-(CF3)2-benzyl) = FC(F)(F)c1cc(CN*)cc(C(F)(F)F)c1; NMePhe(4-F) = CN[C@@H](Cc1ccc(F)cc1)C(=O)O; NMeF = CN[C@@H](Cc1ccccc1)C(=O)O
# Ki listing for each entry below
Don't forget the unit after the number, please.

Study these solved cases before continuing.
>>> data_value("CC(C)C[C@H](NC(=O)[C@@H]1CCCN1C(=O)[C@H](CO)NC(=O)[C@H](Cc1ccccc1)N(C)C(=O)CNC(=O)[C@@H](C)NC(=O)[C@@H](N)Cc1ccc(O)cc1)C(=O)N[C@@H](Cc1c[nH]c2ccccc12)C(=O)NCc1cc(C(F)(F)F)cc(C(F)(F)F)c1 [AKG126] (H-Y[dA]G[NMeF]SPLW-{NH(3,5-(CF3)2-benzyl)})")
"1 nM"
>>> data_value("CC(C)C[C@H](NC(=O)[C@@H]1CCCN1C(=O)c1ccc(NC(=O)[C@H](Cc2ccccc2)N(C)C(=O)CNC(=O)[C@@H](C)NC(=O)[C@@H](N)Cc2ccc(O)cc2)cc1)C(=O)N[C@@H](Cc1c[nH]c2ccccc12)C(=O)NCc1cc(C(F)(F)F)cc(C(F)(F)F)c1 [AKG176]")
"5.3 nM"

Now take the following compound into account.
Entry CC(C)C[C@H](NC(=O)[C@@H]1CCCN1C(=O)CNC(=O)[C@H](Cc1ccc(F)cc1)N(C)C(=O)CNC(=O)[C@@H](C)NC(=O)[C@@H](N)Cc1ccc(O)cc1)C(=O)N[C@@H](Cc1c[nH]c2ccccc12)C(=O)NCc1cc(C(F)(F)F)cc(C(F)(F)F)c1 [AKG131] (H-Y[dA]G[NMePhe(4-F)]GPLW-{NH(3,5-(CF3)2-benzyl)}) , Ki reported as 2 nM

====

# Kb listing for each entry below
target: NK1R (Cavia porcellus, UniProt P30547); construct: The longitudinal muscle with myenteric plexus (LMMP) was carefully separated from the circular muscle; from tissue; host or cells: guinea pig ileum longitudinal muscle with myenteric plexus; test: GPI/LMMP functional assay at NK1R (agonist and antagonist testing); type: cell-based, guinea pig; conditions: antagonist activity; read-out: GPI/LMMP (NK1R) Ke (nM) ± S.E.M.
Sequence (P30547 whole entry): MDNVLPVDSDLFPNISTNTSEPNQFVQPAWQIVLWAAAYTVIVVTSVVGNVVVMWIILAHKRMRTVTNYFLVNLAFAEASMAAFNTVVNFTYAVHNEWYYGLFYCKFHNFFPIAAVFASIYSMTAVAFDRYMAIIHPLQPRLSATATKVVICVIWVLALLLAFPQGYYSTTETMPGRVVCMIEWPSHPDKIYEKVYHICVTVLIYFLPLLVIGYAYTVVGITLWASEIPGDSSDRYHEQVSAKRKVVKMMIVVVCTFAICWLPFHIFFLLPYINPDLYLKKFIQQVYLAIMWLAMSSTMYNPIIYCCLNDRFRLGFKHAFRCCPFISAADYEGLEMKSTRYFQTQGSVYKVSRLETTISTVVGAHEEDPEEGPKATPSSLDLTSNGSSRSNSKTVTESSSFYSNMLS
Non-standard residues stand in square brackets, D forms with d. Residues, ends and D or L forms follow the SMILES beside them. *: point of attachment. NH(3,5-(CF3)2-benzyl) = FC(F)(F)c1cc(CN*)cc(C(F)(F)F)c1

>>> data_value("CC(C)C[C@H](NC(=O)[C@@H]1CCCN1C(=O)Cc1ccc(CNC(=O)[C@H](Cc2ccccc2)N(C)C(=O)CNC(=O)[C@@H](C)NC(=O)[C@@H](N)Cc2ccc(O)cc2)cc1)C(=O)N[C@@H](Cc1c[nH]c2ccccc12)C(=O)NCc1cc(C(F)(F)F)cc(C(F)(F)F)c1")
"76 nM"
>>> data_value("CC(C)C[C@H](NC(=O)[C@@H]1CCCN1C(=O)[C@H](Cc1ccc(O)cc1)NC(=O)CNC(=O)[C@H](Cc1ccccc1)NC(=O)[C@@H](C)NC(=O)[C@@H](N)Cc1ccc(O)cc1)C(=O)N[C@@H](Cc1c[nH]c2ccccc12)C(=O)NCc1cc(C(F)(F)F)cc(C(F)(F)F)c1 [AKG114] (H-Y[dA]FGYPLW-{NH(3,5-(CF3)2-benzyl)})")
"15 nM"
>>> data_value("Cc1cc(O)cc(C)c1C[C@H](N)C(=O)N[C@H](C)C(=O)NCC(=O)N[C@@H](Cc1ccc(F)cc1)C(=O)N1CCC[C@H]1C(=O)N[C@@H](CC(C)C)C(=O)N[C@@H](Cc1c[nH]c2ccccc12)C(=O)NCc1cc(C(F)(F)F)cc(C(F)(F)F)c1")
"5.3 nM"

Now take the following compound into account.
Entry "Cc1cc(O)cc(C)c1C[C@H](N)C(=O)N[C@H](C)C(=O)NCC(=O)N(C)[C@@H](Cc1ccccc1)C(=O)N1CCC[C@H]1C(=O)N[C@@H](CC(C)C)C(=O)N[C@@H](Cc1c[nH]c2ccccc12)C(=O)NCc1cc(C(F)(F)F)cc(C(F)(F)F)c1" , Kb reported as 9.7 nM

====

# Log[IC50±] (μ) listing for each entry below
molecular target: MOR; experiment: Radioligand binding assay at μ opioid receptor; settings: log IC50 ± error
Non-standard residues stand in square brackets, D forms with d. Residues, ends and D or L forms follow the SMILES beside them. *: point of attachment. NH(3,5-(CF3)2-benzyl) = FC(F)(F)c1cc(CN*)cc(C(F)(F)F)c1; NMePhe(4-F) = CN[C@@H](Cc1ccc(F)cc1)C(=O)O; Dmt = Cc1cc(O)cc(C)c1C[C@H](N)C(=O)O; NMeF = CN[C@@H](Cc1ccccc1)C(=O)O; Orn = NCCC[C@H](N)C(=O)O
# output: bare number, no unit

>>> data_value("CC(C)C[C@H](NC(=O)[C@@H]1CCCN1C(=O)[C@H](CCCN)NC(=O)[C@H](Cc1ccccc1)N(C)C(=O)CNC(=O)[C@@H](C)NC(=O)[C@@H](N)Cc1ccc(O)cc1)C(=O)N[C@@H](Cc1c[nH]c2ccccc12)C(=O)NCc1cc(C(F)(F)F)cc(C(F)(F)F)c1 [AKG173] (H-Y[dA]G[NMeF][Orn]PLW-{NH(3,5-(CF3)2-benzyl)})")
"−7.95"
>>> data_value("CC(C)C[C@H](NC(=O)[C@@H]1CCCN1C(=O)[C@H](CO)NC(=O)[C@H](Cc1ccc(F)cc1)N(C)C(=O)CNC(=O)[C@@H](C)NC(=O)[C@@H](N)Cc1ccc(O)cc1)C(=O)N[C@@H](Cc1c[nH]c2ccccc12)C(=O)NCc1cc(C(F)(F)F)cc(C(F)(F)F)c1 [AKG134] (H-Y[dA]G[NMePhe(4-F)]SPLW-{NH(3,5-(CF3)2-benzyl)})")
"−8.27"
>>> data_value("CC(C)C[C@H](NC(=O)[C@@H]1CCCN1C(=O)CNC(=O)[C@H](CCC(N)=O)NC(=O)[C@H](Cc1ccccc1)N(C)C(=O)CNC(=O)[C@@H](C)NC(=O)[C@@H](N)Cc1ccc(O)cc1)C(=O)N[C@@H](Cc1c[nH]c2ccccc12)C(=O)NCc1cc(C(F)(F)F)cc(C(F)(F)F)c1 [AKG-SK-145] (H-Y[dA]G[NMeF]QGPLW-{NH(3,5-(CF3)2-benzyl)})")
"−8.43"

Entry Cc1cc(O)cc(C)c1C[C@H](N)C(=O)N[C@H](C)C(=O)NCC(=O)N(C)[C@@H](Cc1ccc(F)cc1)C(=O)N[C@@H](CO)C(=O)N1CCC[C@H]1C(=O)N[C@@H](CC(C)C)C(=O)N[C@@H](Cc1c[nH]c2ccccc12)C(=O)NCc1cc(C(F)(F)F)cc(C(F)(F)F)c1 [AKG135] (H-[Dmt][dA]G[NMePhe(4-F)]SPLW-{NH(3,5-(CF3)2-benzyl)}; N-terminus assumed) , Log[IC50±] (μ) reported as −8.93

Entry "CC(C)C[C@H](NC(=O)[C@@H]1CCCN1C(=O)Cc1ccc(NC(=O)[C@H](Cc2ccccc2)N(C)C(=O)CNC(=O)[C@@H](C)NC(=O)[C@@H](N)Cc2ccc(O)cc2)cc1)C(=O)N[C@@H](Cc1c[nH]c2ccccc12)C(=O)NCc1cc(C(F)(F)F)cc(C(F)(F)F)c1" , Log[IC50±] (μ) reported as −8.68

Entry "CC(C)C[C@H](NC(=O)[C@@H]1CCCN1C(=O)[C@H](CCC(N)=O)NC(=O)[C@H](Cc1ccc(F)cc1)NC(=O)CNC(=O)[C@@H](C)NC(=O)[C@@H](N)Cc1ccc(O)cc1)C(=O)N[C@@H](Cc1c[nH]c2ccccc12)C(=O)NCc1cc(C(F)(F)F)cc(C(F)(F)F)c1" , Log[IC50±] (μ) reported as −7.67

Recorded values, source patent US11141452B2.
